tested on: Artemia salina; experiment: Artemia salina lethal toxicity assay; assay type: in vivo; conditions: Artemia salina nauplii; read-out: LC50
RECORDED_METRIC: LC50

[[record]]
structure_as_smiles = "CC(C)(O)c1cn(CCCCOc2c(-c3ccc(O)c(O)c3)oc3cc(O)cc(O)c3c2=O)nn1"
test_system = "Artemia salina"
recorded_metric = "LC50"
endpoint_value = "≥ 100 µM"


* * *

biological target: eqBuChE (Equus caballus, UniProt P81908); construct: equine serum butyrylcholinesterase (eqBuChE); purchased Sigma-Aldrich (lyophilized powder, 10.9 U/mg); host or cells: equine serum; test: Ellman cholinesterase inhibitory assay, eqBuChE (screening and IC50); format: biochemical; settings: compound 100 µM; substrate 3 mM
Sequence (P81908 whole entry): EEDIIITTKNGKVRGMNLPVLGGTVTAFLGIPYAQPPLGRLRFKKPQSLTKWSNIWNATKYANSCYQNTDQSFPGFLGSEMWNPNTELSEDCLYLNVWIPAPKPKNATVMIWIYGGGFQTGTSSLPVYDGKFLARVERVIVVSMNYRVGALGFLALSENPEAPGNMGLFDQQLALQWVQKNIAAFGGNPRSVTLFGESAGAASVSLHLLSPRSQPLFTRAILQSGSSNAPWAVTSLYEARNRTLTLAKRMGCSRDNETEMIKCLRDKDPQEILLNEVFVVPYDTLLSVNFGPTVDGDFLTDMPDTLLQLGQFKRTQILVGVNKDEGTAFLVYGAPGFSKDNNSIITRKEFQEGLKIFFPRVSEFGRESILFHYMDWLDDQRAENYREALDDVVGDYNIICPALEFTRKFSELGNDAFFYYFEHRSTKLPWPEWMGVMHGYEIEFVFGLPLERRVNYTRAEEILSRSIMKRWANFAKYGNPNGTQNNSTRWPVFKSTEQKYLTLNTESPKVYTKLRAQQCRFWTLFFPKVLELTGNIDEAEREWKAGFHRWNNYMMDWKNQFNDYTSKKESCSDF
RECORDED_METRIC: inhibition at 100 µM (%)

[[record]]
structure_as_smiles = "COc1cc(OC)c2c(=O)c(OCCCCn3cc(C4(O)CCCC4)nn3)c(-c3ccc(OC)c(OC)c3)oc2c1"
test_system = "eqBuChE (Equus caballus, UniProt P81908)"
recorded_metric = "inhibition at 100 µM"
unit_descriptor = "%"
endpoint_value = 69.6

[[record]]
structure_as_smiles = "COc1cc(OC)c2c(=O)c(OCCCCn3cc(CO)nn3)c(-c3ccc(OC)c(OC)c3)oc2c1"
test_system = "eqBuChE (Equus caballus, UniProt P81908)"
recorded_metric = "inhibition at 100 µM"
unit_descriptor = "%"
endpoint_value = 53.8

[[record]]
structure_as_smiles = "O=c1c(OCCCCn2cc(C3(O)CCCC3)nn2)c(-c2ccc(OCc3ccccc3)c(OCc3ccccc3)c2)oc2cc(OCc3ccccc3)cc(OCc3ccccc3)c12"
test_system = "eqBuChE (Equus caballus, UniProt P81908)"
recorded_metric = "inhibition at 100 µM"
unit_descriptor = "%"
endpoint_value = 26.9

[[record]]
structure_as_smiles = "COc1cc(OC)c2c(=O)c(OCCCCn3cc(-c4ccccc4)nn3)c(-c3ccc(OC)c(OC)c3)oc2c1"
test_system = "eqBuChE (Equus caballus, UniProt P81908)"
recorded_metric = "inhibition at 100 µM"
unit_descriptor = "%"
endpoint_value = 55.3

[[record]]
structure_as_smiles = "COc1cc(OC)c2c(=O)c(OCCCCn3cc(C4CC4)nn3)c(-c3ccc(OC)c(OC)c3)oc2c1"
test_system = "eqBuChE (Equus caballus, UniProt P81908)"
recorded_metric = "inhibition at 100 µM"
unit_descriptor = "%"
endpoint_value = 54.4

[[record]]
structure_as_smiles = "O=c1c(OCCCCn2cc(C3(O)CCCC3)nn2)c(-c2ccc(O)c(O)c2)oc2cc(O)cc(O)c12"
test_system = "eqBuChE (Equus caballus, UniProt P81908)"
recorded_metric = "inhibition at 100 µM"
unit_descriptor = "%"
endpoint_value = 69.9

[[record]]
structure_as_smiles = "COc1cc(OC)c2c(=O)c(OCCCCn3cc(COc4cc(C)ccc4C(C)C)nn3)c(-c3ccc(OC)c(OC)c3)oc2c1"
test_system = "eqBuChE (Equus caballus, UniProt P81908)"
recorded_metric = "inhibition at 100 µM"
unit_descriptor = "%"
endpoint_value = 81.7

